assay notes: PK1: absolute/subcutaneous bioavailability study of Tacrolimus solution (IV and SC)
Assay type: in vivo, female Göttingen minipig
particulars: female, Göttingen, minipig; Tacrolimus solution 2.5 mg/animal SC; whole blood; median
measured attribute: Tmax (h)

compound="C=CC[C@@H]1/C=C(\\C)C[C@H](C)C[C@H](OC)[C@H]2O[C@@](O)(C(=O)C(=O)N3CCCC[C@H]3C(=O)OC(/C(C)=C/[C@@H]3CC[C@@H](O)[C@H](OC)C3)[C@H](C)[C@@H](O)CC1=O)[C@H](C)C[C@@H]2OC (stereo partly shown) [Tacrolimus]" u=h observed_result=4

* * *

assay notes: PK1: absolute/subcutaneous bioavailability study of Tacrolimus solution (IV and SC)
Assay type: in vivo, female Göttingen minipig
particulars: female, Göttingen, minipig; Tacrolimus solution 2.5 mg/animal IV; whole blood
measured attribute: half-life (h)

molecule="C=CC[C@@H]1/C=C(\\C)C[C@H](C)C[C@H](OC)[C@H]2O[C@@](O)(C(=O)C(=O)N3CCCC[C@H]3C(=O)OC(/C(C)=C/[C@@H]3CC[C@@H](O)[C@H](OC)C3)[C@H](C)[C@@H](O)CC1=O)[C@H](C)C[C@@H]2OC (stereo partly shown)" measured_attribute=half-life observed_result=31.5
